- METHOD NOTES: Inhibition of human recombinant topoisomerase 1B expressed in topoisomerase 1B- deficient Saccharomyces cerevisiae EKY3 assessed as decrease in relaxation of negatively supercoiled pSK DNA preincubated for 15 mins followed by supercoiled pSK DNA addition measured after 5 mins by aggarose gel electrophoresis
ASSAY ENDPOINT: IC50 (µM)
Dear colleague, please return just the value in µM, with no unit written.

FC(F)(F)c1ccc(-c2nc3cccnc3c3c2Cc2ccccc2-3)cc1
27.4
Fc1ccc(-c2nc3cccnc3c3c2Cc2ccccc2-3)cc1
87.7
c1ccc2c(c1)Cc1c(-c3ccc4ccccc4c3)nc3cccnc3c1-2
83.4

Okay, now this molecule:
Q: Reported IC50, molecule FC(F)(F)c1ccc([C@H]2Nc3cccnc3[C@H]3c4ccccc4C[C@H]32)cc1 (relative stereo) : ____
Ans: 22.4
